molecular target: MBR (Rattus norvegicus); construct: A Wistar male rat was decapitated and the whole brain was extirpated, and then the cerebellum was removed; assay: Receptor binding experiment ([3H]PK11195 competition); settings: [3H]PK11195, rat membrana cerebri specimen; Cheng and Prusoff
measurement-label: Ki (nM)
Expressed in nM, but write only the number.

Inquiry: Which Ki value belongs to "COc1cc(Cl)ccc1[C@H]1c2[nH]c3cccc(F)c3c2C2(CC2)CN1C(C)=O" ?
Reply text: 0.08
